Where these numbers come from: patent US20100298282A1

measurementTarget: native glucocorticoid receptors (Homo sapiens)
Construct: cell line that expresses native glucocorticoid receptors; endogenous in cells; host or cells: SW1353 human chondrosarcoma cells, stably transfected only with a GRE-luciferase reporter
testDetails: Glucocorticoid reporter gene assay (GRE-luciferase) in SW1353 cells, GR antagonist activity
Assay type: cell-based
cond: GR Antagonist Mean Ki, Ki=IC50/(1+[Dex]/EC50Dex)
experimentalReadout: Ki (nM)
Response body: numeric value in nM, unit text excluded.

Recorded Ki of COc1cccc2c1-c1ccc(NS(C)(=O)=O)cc1C(c1cccc(C)c1)O2 (stereo not shown) , please.
50.4

###

measurementTarget: human recombinant receptor (PR) (Homo sapiens)
testDetails: PR binding, radioligand binding with [3H]-progesterone
experimentalReadout: pKi
As a rule, pKi stands for the negative log10 of the concentration, concentration in M.

compound	pKi
COc1cccc2c1-c1ccc(NS(C)(=O)=O)cc1C(c1cccc(C)c1)O2 (stereo not shown)	6.27

Can you look up pKi on human recombinant receptor (PR) (Homo sapiens) for CN(C)c1ccc([C@H]2C[C@@]3(C)[C@@H](CC[C@]3(O)C#CCO)[C@@H]3CCC4=CC(=O)CCC4=C32)cc1 ?
8.37

Next: CC#C[C@]1(O)CC[C@H]2[C@@H]3CCC4=CC(=O)CCC4=C3[C@@H](c3ccc(N)cc3)C[C@@]21C
8.20

Next: CC#C[C@]1(O)CC[C@H]2[C@@H]3CCC4=CC(=O)CCC4=C3[C@@H](c3ccc(NC)cc3)C[C@@]21C
8.75

###

# reported pIC50; entries follow
measurementTarget: human recombinant receptor (GR) (Homo sapiens)
Sequence (P04150 1-777): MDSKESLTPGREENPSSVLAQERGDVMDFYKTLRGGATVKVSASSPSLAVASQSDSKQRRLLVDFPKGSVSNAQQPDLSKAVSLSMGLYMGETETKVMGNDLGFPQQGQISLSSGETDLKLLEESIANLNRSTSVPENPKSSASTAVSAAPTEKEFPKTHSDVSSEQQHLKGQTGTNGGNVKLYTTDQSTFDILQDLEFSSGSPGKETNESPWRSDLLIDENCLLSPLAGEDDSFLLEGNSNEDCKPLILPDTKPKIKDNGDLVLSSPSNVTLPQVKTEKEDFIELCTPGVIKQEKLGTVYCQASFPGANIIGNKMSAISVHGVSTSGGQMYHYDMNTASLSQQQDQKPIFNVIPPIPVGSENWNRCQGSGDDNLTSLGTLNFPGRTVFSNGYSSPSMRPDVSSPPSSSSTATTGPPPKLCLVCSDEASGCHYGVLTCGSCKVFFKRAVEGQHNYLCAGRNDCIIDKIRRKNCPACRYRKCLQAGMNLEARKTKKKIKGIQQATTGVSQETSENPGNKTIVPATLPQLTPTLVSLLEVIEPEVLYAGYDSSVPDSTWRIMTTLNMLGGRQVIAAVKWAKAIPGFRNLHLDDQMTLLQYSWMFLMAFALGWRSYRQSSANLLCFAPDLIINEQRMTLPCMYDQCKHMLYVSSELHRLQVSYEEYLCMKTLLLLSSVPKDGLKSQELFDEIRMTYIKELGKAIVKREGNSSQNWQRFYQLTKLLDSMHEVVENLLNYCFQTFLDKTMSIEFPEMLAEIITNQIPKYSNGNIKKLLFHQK
testDetails: GR binding, glucocorticoid radioligand binding with [3H]-dexamethasone
As a rule, pIC50 stands for the negative log10 of the concentration, concentration in M.

# example entries with known answers
compound	experimentalReadout	readoutValue
COc1cccc2c1-c1ccc(NS(C)(=O)=O)cc1C(c1cccc(C)c1)O2 (stereo not shown) [Compound A-362947]	pIC50	8.25
CC#C[C@]1(O)CC[C@H]2[C@@H]3CCC4=CC(=O)CCC4=C3[C@@H](c3ccc(N)cc3)C[C@@]21C [RU42848]	pIC50	8.87
CC#C[C@]1(O)CC[C@H]2[C@@H]3CCC4=CC(=O)CCC4=C3[C@@H](c3ccc(NC)cc3)C[C@@]21C [RU42633]	pIC50	8.95

The record that follows has no pIC50 shown yet.
Recorded pIC50 of CN(C)c1ccc([C@H]2C[C@@]3(C)[C@@H](CC[C@]3(O)C#CCO)[C@@H]3CCC4=CC(=O)CCC4=C32)cc1 [RU42698] , please.
8.76

###

measurementTarget: native glucocorticoid receptors (Homo sapiens, UniProt P04150)
Construct: cell line that expresses native glucocorticoid receptors; endogenous in cells; host or cells: SW1353 human chondrosarcoma cells, stably transfected only with a GRE-luciferase reporter
Sequence (P04150 1-777): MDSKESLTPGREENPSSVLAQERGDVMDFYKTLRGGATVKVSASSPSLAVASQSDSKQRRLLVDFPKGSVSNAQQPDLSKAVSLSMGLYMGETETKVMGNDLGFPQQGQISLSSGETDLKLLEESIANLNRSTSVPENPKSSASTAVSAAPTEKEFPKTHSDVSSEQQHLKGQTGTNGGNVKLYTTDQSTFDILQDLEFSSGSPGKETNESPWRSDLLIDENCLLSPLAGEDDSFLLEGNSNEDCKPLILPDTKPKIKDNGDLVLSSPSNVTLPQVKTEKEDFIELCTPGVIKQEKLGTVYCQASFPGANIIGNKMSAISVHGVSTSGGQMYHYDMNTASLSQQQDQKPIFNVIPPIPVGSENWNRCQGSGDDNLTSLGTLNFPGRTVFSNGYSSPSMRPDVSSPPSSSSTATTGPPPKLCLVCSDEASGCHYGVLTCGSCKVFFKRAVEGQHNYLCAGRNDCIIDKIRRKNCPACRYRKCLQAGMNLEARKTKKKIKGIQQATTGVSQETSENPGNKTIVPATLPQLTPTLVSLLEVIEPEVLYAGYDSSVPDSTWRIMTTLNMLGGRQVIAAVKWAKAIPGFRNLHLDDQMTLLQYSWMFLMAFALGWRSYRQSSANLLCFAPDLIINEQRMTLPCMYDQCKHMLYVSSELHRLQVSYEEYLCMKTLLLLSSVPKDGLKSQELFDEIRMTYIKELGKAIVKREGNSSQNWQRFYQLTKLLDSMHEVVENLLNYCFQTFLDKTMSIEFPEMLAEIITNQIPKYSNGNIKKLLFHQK
testDetails: Glucocorticoid reporter gene assay (GRE-luciferase) in SW1353 cells, GR antagonist activity
Assay type: cell-based
cond: Ki=IC50/(1+[Dex]/EC50Dex), read-out: GR Antagonist Mean Ki
Description: Depending on the intended use and route of administration, various criteria may be used to determine a GR antagonist for use in the invention. […] Ki values were calculated from the equation […]
# reported pKi; entries follow
As a rule, pKi stands for the negative log10 of the concentration, concentration in M.

# example entries with known answers
sampleSmiles	measurementTarget	pKi
CC#C[C@]1(O)CC[C@H]2[C@@H]3CCC4=CC(=O)CCC4=C3[C@@H](c3ccc(N)cc3)C[C@@]21C	native glucocorticoid receptors (Homo sapiens, UniProt P04150)	8.07
CC#C[C@]1(O)CC[C@H]2[C@@H]3CCC4=CC(=O)CCC4=C3[C@@H](c3ccc(NC)cc3)C[C@@]21C	native glucocorticoid receptors (Homo sapiens, UniProt P04150)	8.59

The record that follows has no pKi shown yet.
Recorded pKi of CN(C)c1ccc([C@H]2C[C@@]3(C)[C@@H](CC[C@]3(O)C#CCO)[C@@H]3CCC4=CC(=O)CCC4=C32)cc1 , please.
7.90

###

measurementTarget: human recombinant receptor (PR) (Homo sapiens, UniProt P06401)
Sequence (P06401 whole entry): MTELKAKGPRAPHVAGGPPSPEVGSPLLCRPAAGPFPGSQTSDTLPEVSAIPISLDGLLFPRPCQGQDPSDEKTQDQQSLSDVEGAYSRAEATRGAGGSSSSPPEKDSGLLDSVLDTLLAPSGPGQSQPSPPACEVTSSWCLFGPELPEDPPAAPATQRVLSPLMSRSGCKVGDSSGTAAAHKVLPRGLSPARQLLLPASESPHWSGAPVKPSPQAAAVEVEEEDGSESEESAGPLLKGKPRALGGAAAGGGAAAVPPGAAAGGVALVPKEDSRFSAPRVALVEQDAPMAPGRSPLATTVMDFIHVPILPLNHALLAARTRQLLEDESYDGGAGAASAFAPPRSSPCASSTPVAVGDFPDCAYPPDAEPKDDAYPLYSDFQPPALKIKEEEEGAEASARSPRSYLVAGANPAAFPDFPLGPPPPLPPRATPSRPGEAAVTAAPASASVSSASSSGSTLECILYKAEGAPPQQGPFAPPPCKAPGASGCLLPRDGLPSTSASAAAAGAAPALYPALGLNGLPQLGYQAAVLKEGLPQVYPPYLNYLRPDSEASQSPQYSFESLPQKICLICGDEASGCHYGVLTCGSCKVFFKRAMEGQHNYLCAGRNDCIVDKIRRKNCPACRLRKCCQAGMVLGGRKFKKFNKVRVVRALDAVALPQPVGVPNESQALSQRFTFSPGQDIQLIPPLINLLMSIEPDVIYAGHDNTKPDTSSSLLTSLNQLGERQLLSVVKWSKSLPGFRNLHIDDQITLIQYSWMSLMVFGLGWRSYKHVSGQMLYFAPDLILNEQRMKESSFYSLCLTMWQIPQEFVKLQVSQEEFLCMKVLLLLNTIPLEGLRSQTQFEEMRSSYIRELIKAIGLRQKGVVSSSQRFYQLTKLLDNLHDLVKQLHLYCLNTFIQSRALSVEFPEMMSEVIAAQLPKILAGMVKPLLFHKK
testDetails: PR binding, radioligand binding with [3H]-progesterone
Method: The methods are described by Gill et al. and Morgan et al., supra. PR binding was assessed using the same methods, using the human recombinant receptor and [^3H]-progesterone. IC50 values were determined from six-point concentration/inhibition curves performed in duplicate at semi-log concentrations.
experimentalReadout: IC50 (nM)
Response body: numeric value in nM, unit text excluded.

compound	unitDescriptor	IC50
CC#C[C@]1(O)CC[C@H]2[C@@H]3CCC4=CC(=O)CCC4=C3[C@@H](c3ccc(N)cc3)C[C@@]21C [RU42848]	nM	15.9
CC#C[C@]1(O)CC[C@H]2[C@@H]3CCC4=CC(=O)CCC4=C3[C@@H](c3ccc(NC)cc3)C[C@@]21C [RU42633]	nM	4.46
COc1cccc2c1-c1ccc(NS(C)(=O)=O)cc1C(c1cccc(C)c1)O2 (stereo not shown) [Compound A-362947]	nM	1330

The record that follows has no IC50 shown yet.
Recorded IC50 of CN(C)c1ccc([C@H]2C[C@@]3(C)[C@@H](CC[C@]3(O)C#CCO)[C@@H]3CCC4=CC(=O)CCC4=C32)cc1 [RU42698] , please.
10.6

###

measurementTarget: human recombinant receptor (GR) (Homo sapiens)
testDetails: GR binding, glucocorticoid radioligand binding with [3H]-dexamethasone
# reported Ki; entries follow
Response body: numeric value in nM, unit text excluded.

# example entries with known answers
compound	experimentalReadout	unitDescriptor	readoutValue
COc1cccc2c1-c1ccc(NS(C)(=O)=O)cc1C(c1cccc(C)c1)O2 (stereo not shown)	Ki	nM	2.82
CC#C[C@]1(O)CC[C@H]2[C@@H]3CCC4=CC(=O)CCC4=C3[C@@H](c3ccc(N)cc3)C[C@@]21C	Ki	nM	0.68
CN(C)c1ccc([C@H]2C[C@@]3(C)[C@@H](CC[C@]3(O)C#CCO)[C@@H]3CCC4=CC(=O)CCC4=C32)cc1	Ki	nM	0.87

Can you look up Ki on human recombinant receptor (GR) (Homo sapiens) for CC#C[C@]1(O)CC[C@H]2[C@@H]3CCC4=CC(=O)CCC4=C3[C@@H](c3ccc(NC)cc3)C[C@@]21C ?
0.56
